The measurements presented in this section are drawn from ChEMBL document CHEMBL1154716.

Tested on: Listeria monocytogenes
Test: Antimicrobial activity against Listeria monocytogenes at 1 umol/spot after 18 hrs by TLC-bioautographic method
Type: functional
Measured inhibition zone (IZ) accompanies every entry in the list below.
Quantity measured: inhibition zone (IZ)

• CN[C@@H]1[C@H](O[C@H]2[C@H](O[C@H]3[C@H](O)[C@@H](O)[C@H](N=C(N)N)[C@@H](O)[C@@H]3N=C(N)N)O[C@@H](C)[C@]2(O)C=O)O[C@@H](CO)[C@H](O)[C@H]1O = 0.08 millimeter
• CC(=O)N1N=C(c2ccc(Nc3nc(Nc4ccccc4)nc(Nc4ccccc4)n3)cc2)CC1c1ccco1 (configuration not stated) = 0.08 millimeter
• Nc1nc(-c2ccc(Cl)cc2)cc(-c2ccc(Nc3nc(Nc4ccccc4)nc(Nc4ccccc4)n3)cc2)n1 = 0.08 millimeter
• N#Cc1c(-c2ccco2)cc(-c2ccc(Nc3nc(Nc4ccccc4)nc(Nc4ccccc4)n3)cc2)nc1N = 0.08 millimeter
• COc1ccccc1-c1cc(-c2ccc(Nc3nc(Nc4ccccc4)nc(Nc4ccccc4)n3)cc2)nc(N)c1C#N = 0.09 millimeter
• COc1ccccc1/C=C/C(=O)c1ccc(Nc2nc(Nc3ccccc3)nc(Nc3ccccc3)n2)cc1 = 0.08 millimeter
• O=C(/C=C/c1ccco1)c1ccc(Nc2nc(Nc3ccccc3)nc(Nc3ccccc3)n2)cc1 = 0.08 millimeter
• N#Cc1c(-c2ccc(Cl)cc2)cc(-c2ccc(Nc3nc(Nc4ccccc4)nc(Nc4ccccc4)n3)cc2)nc1N = 0.08 millimeter
• N#Cc1c(-c2ccc([N+](=O)[O-])cc2)cc(-c2ccc(Nc3nc(Nc4ccccc4)nc(Nc4ccccc4)n3)cc2)nc1N = 0.1 millimeter
• Nc1nc(-c2ccc(Nc3nc(Nc4ccccc4)nc(Nc4ccccc4)n3)cc2)cc(-c2ccc([N+](=O)[O-])cc2)n1 = 0.1 millimeter
• Nc1nc(-c2ccc(Nc3nc(Nc4ccccc4)nc(Nc4ccccc4)n3)cc2)cc(-c2ccco2)n1 = 0.08 millimeter
• COc1ccccc1-c1cc(-c2ccc(Nc3nc(Nc4ccccc4)nc(Nc4ccccc4)n3)cc2)nc(N)n1 = 0.09 millimeter
• CC(=O)N1N=C(c2ccc(Nc3nc(Nc4ccccc4)nc(Nc4ccccc4)n3)cc2)CC1c1ccc([N+](=O)[O-])cc1 (configuration not stated) = 0.09 millimeter
• O=C(/C=C/c1cccs1)c1ccc(Nc2nc(Nc3ccccc3)nc(Nc3ccccc3)n2)cc1 = 0.08 millimeter
• CC(=O)N1N=C(c2ccc(Nc3nc(Nc4ccccc4)nc(Nc4ccccc4)n3)cc2)CC1c1ccc(Cl)cc1 (configuration not stated) = 0.09 millimeter
• CC(=O)N1N=C(c2ccc(Nc3nc(Nc4ccccc4)nc(Nc4ccccc4)n3)cc2)CC1c1cccs1 (configuration not stated) = 0.08 millimeter
• O=C(/C=C/c1ccc([N+](=O)[O-])cc1)c1ccc(Nc2nc(Nc3ccccc3)nc(Nc3ccccc3)n2)cc1 = 0.07 millimeter
• COc1ccccc1C1CC(c2ccc(Nc3nc(Nc4ccccc4)nc(Nc4ccccc4)n3)cc2)=NN1C(C)=O (configuration not stated) = 0.08 millimeter
• N#Cc1c(-c2cccs2)cc(-c2ccc(Nc3nc(Nc4ccccc4)nc(Nc4ccccc4)n3)cc2)nc1N = 0.09 millimeter
• Nc1nc(-c2ccc(Nc3nc(Nc4ccccc4)nc(Nc4ccccc4)n3)cc2)cc(-c2cccs2)n1 = 0.08 millimeter
• O=C(/C=C/c1ccc(Cl)cc1)c1ccc(Nc2nc(Nc3ccccc3)nc(Nc3ccccc3)n2)cc1 = 0.07 millimeter
